# system tested: Cdk2(H71C) (C177A) (Homo sapiens, UniProt P24941, C177A/H71C)
# Construct: poly-histidine; made in house; host or cells: E. coli
# assay info: Kinetic thiol consumption assay with Cdk2 mutant H71C
# Format: binding
# Parameters: key: rate constant with Cdk2 ÷ rate constant with model thiol (fold)
# condition parameters: Cdk2 H71C, additional mutation C177A
measurement type: Rate enhancement, Cdk2 H71C

molecule	value
C#CCN1CCCN(C(=O)C=C)CC1	0
C=CC(=O)NC(Cc1ccccc1)C(O)CF (stereo not drawn)	0
C=CC(=O)N1CCC(NC(=O)C2CCC2)C1 (stereo not drawn)	0

====

# system tested: Cdk2(H71C) (C177A) (Homo sapiens, UniProt P24941, C177A/H71C)
# Construct: poly-histidine; made in house; host or cells: E. coli
# assay info: Kinetic thiol consumption assay with Cdk2 mutant H71C
# Assay type: binding
# Parameters: key: rate constant with Cdk2 ÷ rate constant with model thiol (fold)
# condition parameters: Cdk2 H71C, additional mutation C177A
measurement type: Rate enhancement, Cdk2 H71C

compound	value
C=CC(=O)NC1C2C3CCC(C3)C12 (centres unmarked)	0.1566
C=CC(=O)NCc1ccc(-c2ccccc2)cc1	0
C=CC(=O)Nc1ccc(C(=O)NC2CCCC2)cc1	3.388
C=CC(=O)N(CC(=O)N1CCCC1)CC1CCCO1 (centres unmarked)	0
C=CC(=O)NCCc1c(-c2ccccn2)[nH]c2ccc(F)cc12	0

a. C=CC(=O)N1CCOC2(CCCCC2)C1
b. C=CC(=O)N(C)C1C2CCOC2C1(C)C (centres unmarked)
QUERY: Between a and b , whose measured Rate enhancement, Cdk2 H71C reads higher? Answer by quoting the chosen item's label.
RESULT: a

P. C=CC(=O)NC1c2ccccc2Oc2ccccc21
Q. C=CC(=O)N1CCC2(CC1)CC2C(=O)OC (centres unmarked)
R. C=CC(=O)NCCc1c[nH]c2ccccc12
QUERY: With regard to Rate enhancement, Cdk2 H71C, arrange the entries in ascending order, please. Answer with the labels in sequence, matching the requested order.
RESULT: Q, P, R

====

# system tested: Cdk2(T182C) (C177A) (Homo sapiens, UniProt P24941, C177A/T182C)
# Construct: poly-histidine; made in house; host or cells: E. coli
# assay info: Kinetic thiol consumption assay with Cdk2 mutant T182C
# Format: binding
# condition parameters: Protein: Cdk2; cysteine position T182C; additional mutation C177A; in h^-1
measurement type: Rate constant with Cdk2 T182C

// known answers, use as guide
compound	system tested	Rate constant with Cdk2 T182C
C=CC(=O)N1CCCN2C(=O)CCC12c1ccc(OC)cc1 (centres unmarked) [EL-1168]	Cdk2(T182C) (C177A) (Homo sapiens, UniProt P24941, C177A/T182C)	0.03904
C=CC(=O)Nc1cccc2ncccc12 [CA-012]	Cdk2(T182C) (C177A) (Homo sapiens, UniProt P24941, C177A/T182C)	0.3013
C=CC(=O)NCCNC(=O)c1ccccc1 [CA216]	Cdk2(T182C) (C177A) (Homo sapiens, UniProt P24941, C177A/T182C)	0.2557

a. C=CC(=O)N1CCCc2sccc2C1 [CA-034]
b. C=CC(=O)N1C(C(=O)c2ccccc2)C1c1ccccc1 (centres unmarked) [CA-53]
c. C=CC(=O)N1CC2CN(Cc3ccccc3)CC2C1 (centres unmarked) [CA-207]
d. C=CC(=O)NC1(c2noc(C)n2)CCCCCC1 [CA-162]
QUERY: Sort the compounds on Rate constant with Cdk2 T182C; start with the lowest figure. // format: requested-order list of labels
RESULT: c, b, a, d
